Listed below: PBM binding z-score values for each entry.
# Tested on: RARa homodimer (NR concentration 270 nM)
# assay protocol: PBM binding z-score (relative to random genomic background probes); higher = stronger binding; sequences stand for … in GC…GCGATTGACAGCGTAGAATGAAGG
I'd appreciate a reply containing only the number, no unit.

Check out these entries, answers already filled in.
>>> assay_value("GCTTACGGGTCAAAGGTAATAGCATGAATAGAAT")
0.248
>>> assay_value("ATACCAAGGTGACCGTGAGGTCGTTGATACTAAC")
0.22
>>> assay_value("GCTAGCAGGGCATTTGGGTCACTCAATGACGGGC")
-0.58
>>> assay_value("CCTTACGGGTCAAGCTTATAGCACGGGTGGTACG")
0.95
>>> assay_value("AGAACGAGGGCAATGAGTTGATATCACGGGTGGC")
-0.0418
>>> assay_value("GCGACTGGGGCAAATCAGGTTACCATAAGGTTGG")
-0.444
>>> assay_value("AGTCAAAGTTCATCTAGGTAACGTATGATATGCT")
1.68
>>> assay_value("TCGAGTAGGTTCCCAATGGGGCATTCAGCTTTCT")
-1.9

So what does the record say about PBM binding z-score for CAAACTAGGTCAAGAGGTCAAAGTACGCTTCCCG ? 3.18

The reported numbers originate from the supplement of paper PMC6555819.
